# System: SW-620 colon
# method.summary: NCI tumour cell line growth inhibition, 48 h
reported.endpoint: TGI

CC(C)(C)c1ccc2c(c1)C#Cc1cc3c(cc1OCCCO2)C#Cc1cc(C(C)(C)C)ccc1OCCCO3 = > 100 µM
COc1cc2c(cc1OCCCN1C(=O)c3cccc4cccc(c34)C1=O)N=C[C@@H]1CCCN1C2=O = > 63 µM
C[N+](C)(C)CC(=O)N/N=C(/Cc1cc(=O)oc2cc(O)ccc12)C(=O)Nc1ccc(Cl)cc1 = > 100 µM

Note: attention shifts to another entry.
Enquiry: Query: TGI; subject: "O=c1cccc(C#CC#C[C@@H]2O[C@H]2CO)o1"
Return: 3.77 µM
